Molecular target: human PAH with the R408W mutation (Homo sapiens, UniProt P00439, R408W)
Construct: expressed in transfected cells
Test: Cell Based Phenylalanine Flux Assay
Settings: A375 cells expressing human PAH R408W; 24 hrs compound incubation; 13C-Tyrosine by LC-MS; average where tested multiple times; read-out: AC50
RECORDED_METRIC: AC50

{"MOL": "O=C(c1nnc(C2CC2)o1)N1CCc2[nH]cnc2[C@H]1c1cc2c(C3CC3)cccn2n1", "TESTED_ON": "human PAH with the R408W mutation (Homo sapiens, UniProt P00439, R408W)", "ENDPOINT_VALUE": "< 500 nM"}
{"MOL": "Cn1nc(C(F)F)nc1C(=O)N1CCc2[nH]cnc2[C@H]1c1cc2cccc(Cl)n2n1", "TESTED_ON": "human PAH with the R408W mutation (Homo sapiens, UniProt P00439, R408W)", "ENDPOINT_VALUE": "1000 to 5000 nM"}
{"MOL": "FC(F)(F)c1nnc(N2CCc3[nH]cnc3[C@H]2c2cc3c(C4CC4)cccn3n2)o1", "TESTED_ON": "human PAH with the R408W mutation (Homo sapiens, UniProt P00439, R408W)", "ENDPOINT_VALUE": "< 500 nM"}
{"MOL": "CC(C)c1cccn2nc([C@H]3c4nc[nH]c4CCN3C(=O)c3nnc(-c4cnn(C)c4)o3)cc12", "TESTED_ON": "human PAH with the R408W mutation (Homo sapiens, UniProt P00439, R408W)", "ENDPOINT_VALUE": "> 5000 nM"}
{"MOL": "Cc1ncccc1-c1nnc(N2CCc3[nH]cnc3[C@@H]2c2cc3c(C(C)C)cccn3n2)o1", "TESTED_ON": "human PAH with the R408W mutation (Homo sapiens, UniProt P00439, R408W)", "ENDPOINT_VALUE": "> 5000 nM"}
{"MOL": "FC(F)c1nnc(N2CCc3[nH]cnc3[C@@H]2c2cc3cccc(C(F)F)n3n2)o1", "TESTED_ON": "human PAH with the R408W mutation (Homo sapiens, UniProt P00439, R408W)", "ENDPOINT_VALUE": "> 5000 nM"}
{"MOL": "O=C(c1nnc(C2CC2)o1)N1CCc2[nH]cnc2[C@H]1c1cc2c(Br)cccn2n1", "TESTED_ON": "human PAH with the R408W mutation (Homo sapiens, UniProt P00439, R408W)", "ENDPOINT_VALUE": "< 500 nM"}
{"MOL": "O=C(c1nnc(-c2cncnc2)o1)N1CCc2[nH]cnc2[C@H]1c1cc2c(F)cccn2n1", "TESTED_ON": "human PAH with the R408W mutation (Homo sapiens, UniProt P00439, R408W)", "ENDPOINT_VALUE": "500 to 1000 nM"}

###

Molecular target: human PAH with the R408W mutation (Homo sapiens, UniProt P00439, R408W)
Construct: expressed in transfected cells
Test: Cell Based Phenylalanine Flux Assay
Details: A375 cells expressing human R408W PAH; 24 hrs compound incubation; 13C-Tyrosine by LC-MS; average where tested multiple times; read-out: AC50
RECORDED_METRIC: AC50

{"MOL": "Cn1cc(-c2nnc(C(=O)N3CCc4[nH]cnc4[C@H]3c3cc4c(C(F)(F)F)cccn4n3)o2)cn1", "ENDPOINT_VALUE": "< 500 nM"}
{"MOL": "Cc1cccc2cc([C@@H]3c4nc[nH]c4CCN3C(=O)c3oc(C(C)(C)O)nc3C(F)(F)F)nn12", "ENDPOINT_VALUE": "< 500 nM"}
{"MOL": "O=C(c1cncs1)N1CCc2[nH]cnc2[C@H]1c1cc2ccccn2n1", "ENDPOINT_VALUE": "< 500 nM"}
{"MOL": "O=C(c1nnc(-c2ccccn2)o1)N1CCc2[nH]cnc2[C@H]1c1cc2c(OC(F)F)cccn2n1", "ENDPOINT_VALUE": "< 500 nM"}

###

Reported AC50 values are given for each entry in this list.
Target: human PAH with the R408W mutation (Homo sapiens, UniProt P00439, R408W)
Construct: expressed in transfected cells
Sequence (P00439 1-452 R408W): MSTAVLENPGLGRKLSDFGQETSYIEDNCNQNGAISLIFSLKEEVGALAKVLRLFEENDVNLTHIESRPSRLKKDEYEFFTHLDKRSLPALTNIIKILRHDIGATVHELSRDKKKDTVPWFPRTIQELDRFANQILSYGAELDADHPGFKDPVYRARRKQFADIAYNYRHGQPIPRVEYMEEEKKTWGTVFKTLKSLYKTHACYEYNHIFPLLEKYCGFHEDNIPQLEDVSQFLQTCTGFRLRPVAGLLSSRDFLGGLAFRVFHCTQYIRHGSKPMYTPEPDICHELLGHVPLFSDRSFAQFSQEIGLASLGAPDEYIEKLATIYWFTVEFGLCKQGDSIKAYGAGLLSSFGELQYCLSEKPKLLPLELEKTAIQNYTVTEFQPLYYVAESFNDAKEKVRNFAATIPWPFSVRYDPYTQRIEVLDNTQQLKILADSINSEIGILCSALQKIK
Experiment: Cell Based Phenylalanine Flux Assay
Details: A375 cells expressing human PAH R408W; 24 hrs compound incubation; 13C-Tyrosine by LC-MS; average where tested multiple times; read-out: AC50
RECORDED_METRIC: AC50

{"MOLECULE": "FC(F)(F)c1nnc(N2CCc3[nH]cnc3[C@H]2c2cc3c(C(F)(F)F)cccn3n2)o1 [Example 1821]", "TESTED_ON": "human PAH with the R408W mutation (Homo sapiens, UniProt P00439, R408W)", "ENDPOINT_VALUE": "< 0.5 µM"}
{"MOLECULE": "Cn1cc(-c2nnc(C(=O)N3CCc4[nH]cnc4[C@H]3c3cc4c(C5CC5)cccn4n3)o2)cn1 [Example 1876]", "TESTED_ON": "human PAH with the R408W mutation (Homo sapiens, UniProt P00439, R408W)", "ENDPOINT_VALUE": "0.5 to 1 µM"}
{"MOLECULE": "Cc1nnc(N2CCc3[nH]cnc3[C@H]2c2cc3c(C(F)F)cccn3n2)o1 [Example 2467]", "TESTED_ON": "human PAH with the R408W mutation (Homo sapiens, UniProt P00439, R408W)", "ENDPOINT_VALUE": "1 to 5 µM"}
{"MOLECULE": "FC(F)(F)c1cnc(N2CCc3[nH]cnc3[C@@H]2c2cc3c(C4CC4)cccn3n2)nc1 [Example 2175]", "TESTED_ON": "human PAH with the R408W mutation (Homo sapiens, UniProt P00439, R408W)", "ENDPOINT_VALUE": "> 5 µM"}

###

Molecular target: human PAH with the R408W mutation (Homo sapiens, UniProt P00439, R408W)
Construct: expressed in transfected cells
Assay: Cell Based Phenylalanine Flux Assay;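 also: after compound treatment, cells received sepiapterin plus isotope-labelled Phenylalanine for 4 hours, then labelled Tyrosine in the medium was quantified, 10-point 2-fold dilution series run in duplicate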
Conditions: A375 cells expressing human R408W PAH; 24 hrs compound incubation; 13C-Tyrosine by LC-MS; average where tested multiple times; read-out: AC50
RECORDED_METRIC: AC50

{"MOL": "O=C(c1nnc(-c2ncccc2F)o1)N1CCc2[nH]cnc2[C@H]1c1cc2c(OC(F)(F)F)cccn2n1", "RECORDED_METRIC": "AC50", "ENDPOINT_VALUE": "< 500 nM"}
{"MOL": "Cn1nc(C2CC2)nc1C(=O)N1CCc2[nH]cnc2[C@H]1c1cc2c(C(F)(F)F)cccn2n1", "RECORDED_METRIC": "AC50", "ENDPOINT_VALUE": "< 500 nM"}
{"MOL": "O=C(c1oc(C2CC2)nc1C(F)F)N1CCc2[nH]cnc2[C@@H]1c1cc2ccccn2n1", "RECORDED_METRIC": "AC50", "ENDPOINT_VALUE": "> 5000 nM"}
{"MOL": "COc1cccn2nc([C@@H]3c4nc[nH]c4CCN3C(=O)c3nnc(-c4ccn(C(F)(F)F)n4)o3)cc12", "RECORDED_METRIC": "AC50", "ENDPOINT_VALUE": "500 to 1000 nM"}
{"MOL": "Cc1cccn2nc([C@@H]3c4nc[nH]c4CCN3C(=O)c3oc([C@@H](C)O)nc3C(F)F)cc12", "RECORDED_METRIC": "AC50", "ENDPOINT_VALUE": "< 500 nM"}
{"MOL": "Cc1cc(-c2nnc(C(=O)N3CCc4[nH]cnc4[C@@H]3c3cc4c(C(F)F)cccn4n3)o2)nn1C", "RECORDED_METRIC": "AC50", "ENDPOINT_VALUE": "> 5000 nM"}
{"MOL": "CN(C)Cc1ccc2c(C(=O)N3CCc4[nH]cnc4[C@@H]3c3cc4c(C(F)(F)F)cccn4n3)cnn2c1", "RECORDED_METRIC": "AC50", "ENDPOINT_VALUE": "> 5000 nM"}
{"MOL": "O=C(c1nnc(-c2ccccn2)o1)N1CCc2[nH]cnc2[C@@H]1c1cc2cccc(C(F)(F)F)n2n1", "RECORDED_METRIC": "AC50", "ENDPOINT_VALUE": "1000 to 5000 nM"}
{"MOL": "Cc1cccn2nc([C@@H]3c4nc[nH]c4CCN3C(=O)c3nnc(N4CCC(F)CC4)o3)cc12", "RECORDED_METRIC": "AC50", "ENDPOINT_VALUE": "500 to 1000 nM"}
{"MOL": "CC(C)(F)c1nnc(C(=O)N2CCc3[nH]cnc3[C@@H]2c2cc3c(F)cccn3n2)o1", "RECORDED_METRIC": "AC50", "ENDPOINT_VALUE": "1000 to 5000 nM"}
{"MOL": "O=C(c1nnc(-c2cnn(CC(F)(F)F)c2)o1)N1CCc2[nH]cnc2[C@H]1c1cc2ccccn2n1", "RECORDED_METRIC": "AC50", "ENDPOINT_VALUE": "1000 to 5000 nM"}
{"MOL": "FC(F)c1cccn2nc([C@@H]3c4nc[nH]c4CCN3c3ncccn3)cc12", "RECORDED_METRIC": "AC50", "ENDPOINT_VALUE": "< 500 nM"}
{"MOL": "Cn1nc(Cl)nc1C(=O)N1CCc2[nH]cnc2[C@H]1c1cc2c(C(F)(F)F)cccn2n1", "RECORDED_METRIC": "AC50", "ENDPOINT_VALUE": "< 500 nM"}
{"MOL": "Cc1cccc2cc([C@@H]3c4nc[nH]c4CCN3C(=O)c3oc(C(C)(C)F)nc3C(F)F)nn12", "RECORDED_METRIC": "AC50", "ENDPOINT_VALUE": "< 500 nM"}
{"MOL": "Cc1cccn2nc([C@@H]3c4nc[nH]c4CCN3C(=O)c3nnc(-c4ccnn4C)o3)cc12", "RECORDED_METRIC": "AC50", "ENDPOINT_VALUE": "< 500 nM"}

Measured values drawn from patent US20230365592A1 for this set.
